The measured values listed here are drawn from paper PMC3961306.

Target: panel of more than 300 wild-type and mutant kinases (313 kinase panel) (Homo sapiens, UniProt Q9NRA0)
Sequence (Q9NRA0 1-654): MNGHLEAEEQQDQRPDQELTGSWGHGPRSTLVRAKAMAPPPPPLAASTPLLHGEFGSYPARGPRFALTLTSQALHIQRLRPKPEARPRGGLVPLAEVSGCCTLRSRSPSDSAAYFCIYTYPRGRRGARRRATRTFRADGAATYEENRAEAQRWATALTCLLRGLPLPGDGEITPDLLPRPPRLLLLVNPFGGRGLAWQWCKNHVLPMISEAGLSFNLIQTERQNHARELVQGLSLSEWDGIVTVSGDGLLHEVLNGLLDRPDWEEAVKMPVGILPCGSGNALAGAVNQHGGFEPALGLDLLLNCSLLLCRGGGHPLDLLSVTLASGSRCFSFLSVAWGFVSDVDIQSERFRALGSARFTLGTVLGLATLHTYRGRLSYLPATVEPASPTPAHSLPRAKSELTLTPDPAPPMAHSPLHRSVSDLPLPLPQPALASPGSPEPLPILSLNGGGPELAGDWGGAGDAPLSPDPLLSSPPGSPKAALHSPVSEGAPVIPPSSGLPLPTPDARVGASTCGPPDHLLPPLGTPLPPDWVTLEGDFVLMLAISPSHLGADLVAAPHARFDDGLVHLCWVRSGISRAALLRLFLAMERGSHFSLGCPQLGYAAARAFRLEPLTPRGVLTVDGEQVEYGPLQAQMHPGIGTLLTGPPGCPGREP
Test: Kinase profiling in a biochemical assay panel (mobility shift assays and ELISA), %-inhibition at 1 μM; selectivity entropy
Details: kinase SPHK2; 1 μM
EXPERIMENTAL_ENDPOINT: %-inhibition of SPHK2 (%)
Write it as a number; the unit % goes unstated.

Answered cases to consult:
For this compound ( C[C@@H](Oc1cc(-c2cnn(C3CCNCC3)c2)cnc1N)c1c(Cl)ccc(F)c1Cl ), measured %-inhibition of SPHK2 is 8

Looking up Cc1ccc(C(=O)Nc2ccc(CN3CCN(C)CC3)c(C(F)(F)F)c2)cc1C#Cc1cnc2cccnn12 , I found its %-inhibition of SPHK2 recorded as 11

// switching to the query compound
Entry CO[C@H]1C[C@@H]2CC[C@@H](C)[C@@](O)(O2)C(=O)C(=O)N2CCCC[C@H]2C(=O)O[C@H]([C@H](C)C[C@@H]2CC[C@@H](OC(=O)C(C)(CO)CO)[C@H](OC)C2)CC(=O)[C@H](C)/C=C(\C)[C@@H](O)[C@@H](OC)C(=O)[C@H](C)C[C@H](C)/C=C/C=C/C=C/1C ; %-inhibition of SPHK2 = 2.77

----------
Target: panel of more than 300 wild-type and mutant kinases (313 kinase panel) (Homo sapiens, UniProt P51813)
Assay: Kinase profiling in a biochemical assay panel (mobility shift assays and ELISA), %-inhibition at 1 μM; selectivity entropy
Conditions: kinase BMX; 1 μM compound
Binary classification by %-inhibition, BMX, with 20% as an inclusive lower bound for true; all other cases are false.

Please indicate if the recorded %-inhibition, BMX for CCCS(=O)(=O)Nc1ccc(F)c(C(=O)c2c[nH]c3ncc(-c4ccc(Cl)cc4)cc23)c1F [vemurafenib] meets or exceeds 20%. true

Others:
Assess whether reported %-inhibition, BMX for COc1cc2nccc(Oc3ccc(NC(=O)C4(C(=O)Nc5ccc(F)cc5)CC4)cc3)c2cc1OC [cabozantinib] sits at 20% or higher. true

Test whether the molecule O=S(=O)(c1cccc2cnccc12)N1CCCNCC1 [fasudil] records %-inhibition, BMX of 20% or higher. false

Check the entry Cc1ccc(Nc2nccc(N(C)c3ccc4c(C)n(C)nc4c3)n2)cc1S(N)(=O)=O [pazopanib] : does %-inhibition, BMX equal or exceed 20%? true

Check this molecule for %-inhibition, BMX at or above 20%: CC(C)(C)c1nc(-c2cccc(NS(=O)(=O)c3c(F)cccc3F)c2F)c(-c2ccnc(N)n2)s1 [dabrafenib] true

Reported %-inhibition, BMX reaches at least 20% for CS(=O)(=O)CCNCc1ccc(-c2ccc3ncnc(Nc4ccc(OCc5cccc(F)c5)c(Cl)c4)c3c2)o1 [lapatinib] ? false

Entry COc1cc2c(Nc3ccc(Br)cc3F)ncnc2cc1OCC1CCN(C)CC1 [vandetanib] : is its %-inhibition, BMX no less than 20%? false
